We begin with pIC50 values for UniProt:Q9UBN7, as collected from the published literature.
# assayed_target: UniProt:Q9UBN7
# Sequence (Q9UBN7 whole entry): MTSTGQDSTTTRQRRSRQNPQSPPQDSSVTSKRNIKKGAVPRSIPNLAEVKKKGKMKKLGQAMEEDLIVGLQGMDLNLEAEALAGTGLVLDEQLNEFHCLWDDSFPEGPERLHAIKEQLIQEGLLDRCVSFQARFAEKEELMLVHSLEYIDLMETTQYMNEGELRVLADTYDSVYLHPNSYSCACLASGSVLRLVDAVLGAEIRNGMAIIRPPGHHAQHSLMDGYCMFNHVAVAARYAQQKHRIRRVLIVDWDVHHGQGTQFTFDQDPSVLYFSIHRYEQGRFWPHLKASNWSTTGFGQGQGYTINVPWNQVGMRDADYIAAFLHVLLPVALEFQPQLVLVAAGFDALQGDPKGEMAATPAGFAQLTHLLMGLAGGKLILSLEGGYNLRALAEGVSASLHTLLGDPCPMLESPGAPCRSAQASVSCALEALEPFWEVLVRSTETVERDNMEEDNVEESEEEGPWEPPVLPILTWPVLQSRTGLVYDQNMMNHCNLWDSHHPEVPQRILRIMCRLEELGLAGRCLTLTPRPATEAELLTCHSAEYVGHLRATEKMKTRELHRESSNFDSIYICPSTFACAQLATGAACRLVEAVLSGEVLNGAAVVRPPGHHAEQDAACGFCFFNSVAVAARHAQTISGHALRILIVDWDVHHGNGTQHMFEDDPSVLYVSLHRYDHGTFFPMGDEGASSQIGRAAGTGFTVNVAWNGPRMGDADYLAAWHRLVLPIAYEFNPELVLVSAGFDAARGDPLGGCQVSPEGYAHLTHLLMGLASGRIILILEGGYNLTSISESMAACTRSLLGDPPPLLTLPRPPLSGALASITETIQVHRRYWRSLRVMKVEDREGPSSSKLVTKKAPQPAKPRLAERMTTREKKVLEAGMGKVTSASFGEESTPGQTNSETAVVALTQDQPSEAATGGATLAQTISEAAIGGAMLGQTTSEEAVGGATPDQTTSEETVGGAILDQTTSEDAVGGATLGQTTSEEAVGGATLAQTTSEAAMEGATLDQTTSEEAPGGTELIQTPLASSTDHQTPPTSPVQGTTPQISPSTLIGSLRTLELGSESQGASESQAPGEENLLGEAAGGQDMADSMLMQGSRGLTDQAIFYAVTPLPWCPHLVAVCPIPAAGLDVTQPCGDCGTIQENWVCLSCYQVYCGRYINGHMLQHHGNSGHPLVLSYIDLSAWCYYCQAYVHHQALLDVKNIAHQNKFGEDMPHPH
One number for each entry, as −log10 of the molar value.

Please review the entries below; each comes with its answer.
1) Cn1c([C@@H](Cc2ccccc2)NCc2ccccc2)nc2cc(C(=O)NO)ccc21	8.33
2) CN1C(=O)CC[C@@H]1C(=O)N[C@@H](CCCCCS)C(=O)Nc1ccccc1	8.30
3) CC(C)(F)CN1CCc2cc(O)ccc2C1c1ccc(OCCCCCCC(=O)NO)cc1 (stereo unspecified)	7.20
4) COC1CCN(c2nc(-c3cnc(N)nc3)cn(Cc3ccc(C(=O)NO)cc3)c2=O)CC1	8.13

Batch of 5 compounds: report pIC50 for each.
1. Nc1ncc(-c2cn(Cc3ccc(C(=O)NO)cc3)c(=O)c(N3CCCCC3)n2)cn1
2. O=C1CC[C@H](C(=O)N[C@@H](CCCCCS)C(=O)Nc2cccc(C(F)(F)F)c2)N1
3. O=C(CCC1C(=O)N(c2ccc(Cl)cc2)C(=O)N1Cc1ccccc1)NCc1ccc(C(=O)NO)cc1 (stereo unspecified)
4. O=C(CCCCCn1cc(-c2ccc3ncnc(Nc4ccc(OCc5cccc(F)c5)c(Cl)c4)c3c2)nn1)NO
5. CS(=O)(=O)Cc1noc(-c2ccc(C(=O)C(F)(F)F)s2)n1

**Result**
[8.38, 8.30, 7.90, 7.03, 6.64]
